These measurements were taken from patent US10047105B2.

// MIC Spn52 lookup, one value per entry
system: S. pneumoniae ATCC 51916; assay: MIC, S. pneumoniae; type: cell-based; conditions: S. pneumoniae

[
  {
    "COMPOUND": "CCc1[nH]c2nc(Sc3cnc4nccnc4c3)nc(N3CC(CNS(C)(=O)=O)C3)c2c1Br [700,468]",
    "MIC Spn52": "1 µg/mL"
  },
  {
    "COMPOUND": "CCc1[nH]c2nc(Nc3cnc4c(c3)nnn4CC3CC3)nc(N3CC(O)C3)c2c1Br.O=C(O)C(F)(F)F [700,498]",
    "MIC Spn52": "> 64 µg/mL"
  },
  {
    "COMPOUND": "CCc1[nH]c2nc(Sc3cnc4nccnc4c3)nc(N3CC(NC(C)=O)C3)c2c1Cl [700,441]",
    "MIC Spn52": "2 µg/mL"
  },
  {
    "COMPOUND": "CCc1[nH]c2nc(Sc3ccc4cc(C(=O)O)cnc4c3)nc(N3CC[C@@H](N)C3)c2c1Cl [700,705]",
    "MIC Spn52": "> 64 µg/mL"
  },
  {
    "COMPOUND": "CCOc1nc(Sc2ncc3cccnc3n2)nc2[nH]c(CC)c(Cl)c12 [700,341]",
    "MIC Spn52": "> 64 µg/mL"
  },
  {
    "COMPOUND": "CCc1[nH]c2nc(Sc3cnc4nccnc4c3)nc(OS(=O)(=O)c3ccc(C)cc3)c2c1Cl [700,558]",
    "MIC Spn52": "> 64 µg/mL"
  },
  {
    "COMPOUND": "CCc1[nH]c2nc(Sc3cnc4nccnc4c3)nc(N3CC(NC(=O)C4CC4)C3)c2c1Cl [700,440]",
    "MIC Spn52": "≤ 0.5 µg/mL"
  },
  {
    "COMPOUND": "CCOc1nc(Nc2cccnc2)nc2[nH]c(CC)c(Br)c12 [700,331]",
    "MIC Spn52": "> 64 µg/mL"
  },
  {
    "COMPOUND": "CCc1[nH]c2nc(Sc3ccc(S(=O)(=O)NCCN4CCOCC4)cc3)nc(N3CC(N)C3)c2c1Cl [700,596]",
    "MIC Spn52": "32 µg/mL"
  },
  {
    "COMPOUND": "CCc1[nH]c2nc(Cc3cccnc3)nc(N3CC(NC(=O)OC(C)(C)C)C3)c2c1Cl [700,461]",
    "MIC Spn52": "> 64 µg/mL"
  },
  {
    "COMPOUND": "CCc1[nH]c2nc(Sc3nc(-c4nnc(C)o4)cs3)nc(N3CC(O)C3)c2c1Cl.Cl.Cl.Cl [700,387]",
    "MIC Spn52": "> 64 µg/mL"
  },
  {
    "COMPOUND": "CCc1[nH]c2nc(Sc3cnc4nccnc4c3)nc(N(C)CC(O)C(O)C(O)C(O)CO)c2c1Cl (centres unmarked) [700,431]",
    "MIC Spn52": "> 64 µg/mL"
  },
  {
    "COMPOUND": "CCOc1nc(Sc2ccc(N3CCC(O)CC3)nn2)nc2[nH]c(CC)c(Cl)c12 [700,327]",
    "MIC Spn52": "64 µg/mL"
  },
  {
    "COMPOUND": "CCc1[nH]c2nc(Sc3cnc4nccnc4c3)nc(N3CC(O)C3)c2c1Cl [700,393]",
    "MIC Spn52": "1 µg/mL"
  },
  {
    "COMPOUND": "CCc1[nH]c2nc(Sc3cnc4nccnc4c3)nc(N3CC(NC(=O)c4csc(N)n4)C3)c2c1Cl [700,453]",
    "MIC Spn52": "≤ 0.5 µg/mL"
  },
  {
    "COMPOUND": "CCc1[nH]c2nc(Sc3nc(C(=O)O)c(Cl)s3)nc(N3CC(O)C3)c2c1Br [700,391]",
    "MIC Spn52": "> 64 µg/mL"
  },
  {
    "COMPOUND": "CCc1[nH]c2nc(Sc3nc4ncccc4c(=O)[nH]3)nc(N3CC(O)C3)c2c1Br [700,358]",
    "MIC Spn52": "> 64 µg/mL"
  }
]

====

test system: S. aureus ATCC 13709; assay: MIC, antibacterial potency, S. aureus; type: cell-based; details: S. aureus (SA); in µg/mL
MEASURED_ATTRIBUTE: MIC, SA

[
  {
    "COMPOUND": "CCc1[nH]c2nc(Sc3cncc(S(=O)(=O)N(C)C)c3)nc(N3CC[C@@H](N)C3)c2c1Cl",
    "RESULT": 16
  },
  {
    "COMPOUND": "CCc1[nH]c2nc(Sc3cnc4cccnc4c3)nc(N3CCC4CNC4C3)c2c1Cl (centres unmarked)",
    "RESULT": "<=0.5"
  },
  {
    "COMPOUND": "CCc1[nH]c2nc(Sc3cnc4ccc[n+]([O-])c4c3)nc(N3CC(N)C3)c2c1Cl",
    "RESULT": "<=0.5"
  },
  {
    "COMPOUND": "CCc1[nH]c2nc(Sc3cnc4cccnc4c3)nc(N3C[C@H](N)[C@H](C(=O)Nc4nccs4)C3)c2c1Cl",
    "RESULT": 2
  },
  {
    "COMPOUND": "CCc1[nH]c2nc(Sc3cnc4cccnc4c3)nc(N3CCC(CNS(=O)(=O)c4cnoc4C)C3)c2c1Cl (centres unmarked)",
    "RESULT": 2
  },
  {
    "COMPOUND": "CCc1[nH]c2nc(Oc3ccc4c(c3)ncc[n+]4[O-])nc(Oc3ccc4c(c3)ncc[n+]4[O-])c2c1Cl",
    "RESULT": 8
  },
  {
    "COMPOUND": "CCc1[nH]c2nc(Oc3cncnc3)nc(Oc3cncc(C#N)c3)c2c1Cl",
    "RESULT": "<=0.5"
  },
  {
    "COMPOUND": "CCc1[nH]c2nc(Oc3cnc4c(c3)ncn4C)nc(N3CC[C@@H](NC(C)=O)C3)c2c1Cl",
    "RESULT": 4
  }
]

====

test system: S. pneumoniae ATCC 51916; experiment: MIC, S. pneumoniae; format: cell-based; details: S. pneumoniae

[
  {
    "COMPOUND": "CCc1[nH]c2nc(Sc3cnc4nccnc4c3)nc(N3CC(N)C4(CC4)C3)c2c1Cl.O=C(O)C(F)(F)F (stereo not drawn)",
    "EXPERIMENTAL_TARGET": "S. pneumoniae ATCC 51916",
    "CMP": "=",
    "MIC Spn52 (µg/mL)": 2
  },
  {
    "COMPOUND": "CCc1[nH]c2nc(Sc3cnc4nccnc4c3)nc(N3CC(NC(=O)c4cc(N)ccn4)C3)c2c1Cl",
    "EXPERIMENTAL_TARGET": "S. pneumoniae ATCC 51916",
    "CMP": "=",
    "MIC Spn52 (µg/mL)": 1
  },
  {
    "COMPOUND": "CCc1[nH]c2nc(Oc3cncnc3)nc(N3CC(O)C3)c2c1Cl.O=C(O)C(F)(F)F",
    "EXPERIMENTAL_TARGET": "S. pneumoniae ATCC 51916",
    "CMP": "=",
    "MIC Spn52 (µg/mL)": 8
  },
  {
    "COMPOUND": "CCc1[nH]c2nc(Sc3nc(C(=O)O)cs3)nc(N3CC(O)C3)c2c1Cl",
    "EXPERIMENTAL_TARGET": "S. pneumoniae ATCC 51916",
    "CMP": ">",
    "MIC Spn52 (µg/mL)": 64
  },
  {
    "COMPOUND": "CCc1[nH]c2nc(Sc3cnc4nccnc4c3)nc(NCCNC(=O)OC(C)(C)C)c2c1Cl.O=C(O)C(F)(F)F",
    "EXPERIMENTAL_TARGET": "S. pneumoniae ATCC 51916",
    "CMP": "=",
    "MIC Spn52 (µg/mL)": 4
  },
  {
    "COMPOUND": "CCc1[nH]c2nc(Sc3cnc4nccnc4c3)nc(N3CC(C)(N)C3)c2c1Cl.O=C(O)C(F)(F)F.O=C(O)C(F)(F)F",
    "EXPERIMENTAL_TARGET": "S. pneumoniae ATCC 51916",
    "CMP": "=",
    "MIC Spn52 (µg/mL)": 8
  },
  {
    "COMPOUND": "CCc1[nH]c2nc(Oc3cncnc3)nc(Oc3cncnc3)c2c1Cl.O=C(O)C(F)(F)F [700,466]",
    "EXPERIMENTAL_TARGET": "S. pneumoniae ATCC 51916",
    "CMP": "=",
    "MIC Spn52 (µg/mL)": 16
  },
  {
    "COMPOUND": "CCc1[nH]c2nc(Sc3cnc4nccnc4c3)nc(N3CC(Oc4ccc(OC)cc4)C3)c2c1Cl.O=C(O)C(F)(F)F",
    "EXPERIMENTAL_TARGET": "S. pneumoniae ATCC 51916",
    "CMP": ">",
    "MIC Spn52 (µg/mL)": 64
  },
  {
    "COMPOUND": "CCOc1nc(Sc2cccnc2)nc2[nH]c(CC)c(Br)c12.O=C(O)C(F)(F)F",
    "EXPERIMENTAL_TARGET": "S. pneumoniae ATCC 51916",
    "CMP": "=",
    "MIC Spn52 (µg/mL)": 8
  },
  {
    "COMPOUND": "CCc1[nH]c2nc(Nc3cnc4c(c3)nnn4C(C)C)nc(N3CC(N)C3)c2c1Cl.O=C(O)C(F)(F)F.O=C(O)C(F)(F)F",
    "EXPERIMENTAL_TARGET": "S. pneumoniae ATCC 51916",
    "CMP": "=",
    "MIC Spn52 (µg/mL)": 8
  },
  {
    "COMPOUND": "CCc1[nH]c2nc(Sc3cccnc3)nc(N3CC(N)C3)c2c1Cl",
    "EXPERIMENTAL_TARGET": "S. pneumoniae ATCC 51916",
    "CMP": "=",
    "MIC Spn52 (µg/mL)": 32
  },
  {
    "COMPOUND": "CCc1[nH]c2nc(Sc3cnc4cccnc4n3)nc(N3CC(O)C3)c2c1Cl",
    "EXPERIMENTAL_TARGET": "S. pneumoniae ATCC 51916",
    "CMP": "=",
    "MIC Spn52 (µg/mL)": 2
  },
  {
    "COMPOUND": "CCc1[nH]c2nc(Sc3nc(C(=O)O)cs3)nc(N3CCC(=O)C3)c2c1Cl.O=C(O)C(F)(F)F",
    "EXPERIMENTAL_TARGET": "S. pneumoniae ATCC 51916",
    "CMP": ">",
    "MIC Spn52 (µg/mL)": 64
  },
  {
    "COMPOUND": "CCc1[nH]c2nc(Cc3cccnc3)nc(N(C)C)c2c1Cl",
    "EXPERIMENTAL_TARGET": "S. pneumoniae ATCC 51916",
    "CMP": ">",
    "MIC Spn52 (µg/mL)": 64
  },
  {
    "COMPOUND": "CCc1[nH]c2nc(Nc3cnc4c(c3)nnn4C(C)C)nc(OC)c2c1Br.O=C(O)C(F)(F)F",
    "EXPERIMENTAL_TARGET": "S. pneumoniae ATCC 51916",
    "CMP": "=",
    "MIC Spn52 (µg/mL)": 4
  },
  {
    "COMPOUND": "CCc1[nH]c2nc(Sc3nc(C(=O)O)cs3)nc(N3CC(Cc4c(Cl)ncnc4Cl)C3)c2c1Cl.O=C(O)C(F)(F)F",
    "EXPERIMENTAL_TARGET": "S. pneumoniae ATCC 51916",
    "CMP": ">",
    "MIC Spn52 (µg/mL)": 64
  },
  {
    "COMPOUND": "CCc1[nH]c2nc(Sc3ccc4cc(C(=O)N5CC[C@@H](N)C5)cnc4c3)nc(N3CC[C@@H](N)C3)c2c1Cl",
    "EXPERIMENTAL_TARGET": "S. pneumoniae ATCC 51916",
    "CMP": "=",
    "MIC Spn52 (µg/mL)": 32
  },
  {
    "COMPOUND": "CCc1[nH]c2nc(Sc3cncnc3)nc(N3CC[C@@H](N)C3)c2c1Cl",
    "EXPERIMENTAL_TARGET": "S. pneumoniae ATCC 51916",
    "CMP": "=",
    "MIC Spn52 (µg/mL)": 16
  }
]
